biological target: Focal adhesion kinase 1 (Homo sapiens) (UniProt Q05397); test: PTK2 protein binding on printed compound slides – biochemical, small-molecule microarray, 635/667 nm fluorescence, BSA, DTT, primary screen (AID 1130); settings: 635 nm fluorescence, higher = more signal;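 further: composite of spot emission at 667 nm and signal to noise over triplicate slides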
Sequence (Q05397 whole entry, looked up): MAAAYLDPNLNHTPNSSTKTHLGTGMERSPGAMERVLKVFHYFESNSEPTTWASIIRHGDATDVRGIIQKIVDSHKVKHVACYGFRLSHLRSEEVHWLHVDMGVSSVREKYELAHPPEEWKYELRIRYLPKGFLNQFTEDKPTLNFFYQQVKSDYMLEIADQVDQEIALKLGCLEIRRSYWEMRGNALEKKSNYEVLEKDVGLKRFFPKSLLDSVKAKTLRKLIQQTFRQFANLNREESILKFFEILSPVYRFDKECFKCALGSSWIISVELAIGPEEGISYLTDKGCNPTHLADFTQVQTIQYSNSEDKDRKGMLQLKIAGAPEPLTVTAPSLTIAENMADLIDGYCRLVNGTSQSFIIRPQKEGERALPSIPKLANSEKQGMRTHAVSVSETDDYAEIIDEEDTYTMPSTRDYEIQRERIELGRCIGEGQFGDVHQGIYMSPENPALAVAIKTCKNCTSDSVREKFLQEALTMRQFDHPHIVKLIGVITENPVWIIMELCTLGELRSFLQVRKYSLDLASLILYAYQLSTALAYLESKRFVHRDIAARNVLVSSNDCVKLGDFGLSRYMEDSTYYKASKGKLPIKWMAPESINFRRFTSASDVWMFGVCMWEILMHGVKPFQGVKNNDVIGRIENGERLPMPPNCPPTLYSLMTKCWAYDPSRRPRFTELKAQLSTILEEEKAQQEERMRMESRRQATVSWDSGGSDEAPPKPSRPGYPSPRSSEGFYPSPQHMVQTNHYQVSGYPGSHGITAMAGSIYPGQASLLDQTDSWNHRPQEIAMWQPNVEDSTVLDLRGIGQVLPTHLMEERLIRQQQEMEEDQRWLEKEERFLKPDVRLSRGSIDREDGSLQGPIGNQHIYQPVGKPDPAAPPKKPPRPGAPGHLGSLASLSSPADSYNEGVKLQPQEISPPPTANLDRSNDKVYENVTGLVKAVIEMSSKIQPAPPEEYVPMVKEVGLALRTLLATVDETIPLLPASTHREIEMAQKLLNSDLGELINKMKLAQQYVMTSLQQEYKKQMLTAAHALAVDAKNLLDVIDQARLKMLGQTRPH
Use -0.03 as the dividing line for composite z-score, with the line itself on the class 1 side and lower values as class 0.

q: Please indicate if the recorded composite z-score for "COc1ccc(C#Cc2ccc3c(c2)[C@]2(C(=O)N3)[C@H](C(N)=O)[C@H]3C(=O)O[C@H](c4ccccc4)[C@H](c4ccccc4)N3[C@@H]2c2ccc(O)cc2)cc1" meets or exceeds -0.03.
a: class 1

q: # check: composite z-score of "NC(=O)NCC#Cc1ccc2c(c1)[C@]1(C(=O)N2)[C@H](c2ccc(O)cc2)N2[C@H](c3ccccc3)[C@H](c3ccccc3)OC(=O)[C@H]2[C@@H]1C(=O)NC[C@H](O)c1ccccc1" is greater than or equal to -0.03
a: class 0

q: // inclusive: composite z-score at least -0.03? input: C=CCC(OC(C)=O)[C@@H]1[C@@H](N(Cc2ccc(-c3ccccc3)cc2)C(=O)Cc2ccc(OC)cc2)c2cc(OCCCO)ccc2N1C(=O)c1ccc(-c2ccccc2)cc1 (stereo partly specified)
a: class 1

q: Does CC(C)C(CO)N1C(=O)[C@@H]2[C@H]3C(=O)OCC=C[C@H]3OC23C=CCN(CCN2CCOCC2)C(=O)[C@@H]13 (stereo partly specified) have a reported composite z-score of at least -0.03?
a: class 0

q: Exam item: decide whether the reported composite z-score for C=CCC(OC(C)=O)[C@@H]1[C@@H](N(Cc2ccc(-c3cccc(C(F)(F)F)c3)o2)C(=O)c2cccc3ccccc23)c2cc(OCCCO)ccc2N1C(=O)c1ccc(-c2ccccc2)cc1 (stereo partly specified) is at least -0.03.
a: class 0

q: Hi, just wondering whether "C[N+](C)(C)CCCCCCNC(=O)[C@@H]1C[C@@H]2C(=O)NCC(=O)N2[C@@H]1c1ccc(O)cc1" shows composite z-score of -0.03 or higher.
a: class 1

----------
Give composite z-score for every item shown.
test: COS7 lysate on small-molecule microarray, probe aHis, 635 nm (AID 1123); settings: COS7 cell lysate, fluorescence, higher = more signal;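 further: z-score combines 667nm fluorescence intensity with signal-to-noise per printed compound spot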
Answers are plain numbers.

Previously resolved entries follow.
{"given-smiles": "CC(C)(C)OC(=O)CC[C@@]1(C(=O)N2CCCCC2)N=C(c2ccc(OCCCO)cc2)O[C@@H]1c1ccccc1CN=[N+]=[N-]", "val": 2.99}
{"given-smiles": "COc1ccc(C(=O)Nc2ccc(CN3C(=O)[C@@]4(O[C@@H](CC(=O)N5Cc6ccccc6C[C@H]5CO)[C@H]([Si](C)(C)c5ccc(OC)cc5)[C@H]4C)c4ccccc43)cc2)cc1", "val": 2.26}

q: // query composite z-score value for entry "C=C(COC)/C(=C/C[C@@H](OC(=O)c1ccncc1)c1cccc(OCCO)c1)c1cc(C(=O)OC)ccc1OC"
a: -0.0596

----------
system: Fibrinogen (Alexa647-labelled); assay: Alexa647-fibrinogen binding to printed small molecules – biochemical, small-molecule microarray, 635/667 nm fluorescence, artefact control for SMM control-protein annotation, profiling panel (AID 1131); details: fibrinogen-A647 binding fluorescence, higher = more signal;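 further: z-score merges 667 nm fluorescence with per-spot signal-to-noise over triplicate slides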
measurement-label: composite z-score
One number for each entry.

Here are 3 compounds together with their reported answers.
{"given-smiles": "CCCN1C(=O)[C@@]2(Cc3ccccc3)N=C(c3ccc(OCCCO)cc3)O[C@H]2c2ccccc21", "composite z-score": 0.753}
{"given-smiles": "COC(=O)[C@@]1(Cc2ccccc2N=[N+]=[N-])N=C(c2ccc(OCCCO)cc2)O[C@H]1c1ccccc1", "composite z-score": 0.422}
{"given-smiles": "COC(=O)C(CC#Cc1ccc2c(c1)[C@]1(C(=O)N2)[C@H](C(=O)N2CCc3cc(OC)c(OC)cc3C2)[C@H]2C(=O)O[C@H](c3ccccc3)[C@H](c3ccccc3)N2[C@@H]1c1ccc(OCCO)cc1)C(=O)OC", "composite z-score": 0.99}

q: Quick check: composite z-score on Fibrinogen (Alexa647-labelled), item "CCCC=C(CCC)[C@@H](NS(=O)(=O)c1ccccc1)c1ccc(C(F)(F)F)cc1" ?
a: 0.979

src = PubChem BioAssay
